MEASUREMENT PARAMETERS: 337.15 K; 101.33 kPa; Liquid; Vibrating tube method
Hi there, I'd appreciate the recorded mass density for every entry that follows.
The reply should be a number in kg/m3, with the unit left off.

Endpoint output: mass density of CCCCC[n+]1ccn(CCCC)c1.O=S(=O)([N-]S(=O)(=O)C(F)(F)F)C(F)(F)F . Value?
1283

Input CCCC[n+]1ccn(C2CCCC2)c1.O=S(=O)([N-]S(=O)(=O)C(F)(F)F)C(F)(F)F
1339.6

Let us now turn to CCCCn1cc[n+](C(CC)CC)c1.O=S(=O)([N-]S(=O)(=O)C(F)(F)F)C(F)(F)F
1285.3

Now consider CCCCn1cc[n+](CCC(C)C)c1.O=S(=O)([N-]S(=O)(=O)C(F)(F)F)C(F)(F)F .
1283.9
